system: spinal nerve roots of the cauda equina; assay: Compound nerve action potentials (CAPs) recorded in vitro from isolated spinal nerve roots; parameters: species or system rats; conditions: Rattus norvegicus; K+ concentration read from the dose-response curves; read-out: 50% reduction of the CAP
Where a name gives a salt, the structure may show the parent alone.
Quantity measured: pIC50
Please keep in mind that pIC50 is minus log10 of the molar concentration; only the number is needed.

Would you please give the reported pIC50 of O=C(O)C(O)C(O)C(=O)O (stereo not shown) [K₂Tartrate, dipotassium tartrate] with spinal nerve roots of the cauda equina?
1.94
